- assay-overview: Toxicity in ig dosed Kunming mouse
- Format: organism-based
- stated-conditions: in vivo, po
measure-name: LD50 (mg/kg)
Quick note: give the figure in mg/kg, leave out the unit.

CCN1C[C@]2(COC)[C@H](O)C[C@H](OC)[C@@]34[C@@H]5C[C@@]6(O)[C@H](OC(=O)c7ccccc7)[C@@H]5[C@@](OC(C)=O)([C@@H]([C@H](OC)[C@H]23)[C@@H]14)[C@@H](O)[C@@H]6OC | 0.16

Please turn your attention to the following entry.
Value of measured LD50 for the entry "CCN1C[C@]2(COC)CC[C@H](OC)[C@@]34C1O[C@H](C=C1[C@H]5[C@@H](O)[C@H](C[C@H]53)[C@@H](OC)[C@H]1O)[C@H]24" : 500

* * *

A collection of compounds and their measured selectivity ratio
- assay-overview: Therapeutic index, ratio of LD50 in Kunming mouse to ED50 for analgesic activity in mouse
- Format: organism-based
- stated-conditions: in vivo, read-out: Ratio LD50/ED50
// no unit, no text: just the number

CCN1C[C@]2(COC)[C@H](O)C[C@H](OC)[C@@]34[C@@H]5C[C@@]6(O)[C@H](OC(=O)c7ccccc7)[C@@H]5[C@@](OC(C)=O)([C@@H]([C@H](OC)[C@H]23)[C@@H]14)[C@@H](O)[C@@H]6OC | 2

Please turn your attention to the following entry.
Value of measured selectivity ratio for the entry "CCN1C[C@]2(COC)CC[C@H](OC)[C@@]34C1O[C@H](C=C1[C@H]5[C@@H](O)[C@H](C[C@H]53)[C@@H](OC)[C@H]1O)[C@H]24" : 33

src = ChEMBL document CHEMBL2040812
